- System: M14 melanoma
- RUN_DESCRIPTION: NCI tumour cell line growth inhibition, 48 h; in the data active = GI50 below about 0.43 µM; inactive = the rest
Labels: active, inactive

- MOLECULE: "CCOCNc1ccc(N2C(=O)/C(=C/c3ccc(N(CC)CC)cc3)N=C2c2ccccc2)cc1"
  LABEL: "inactive"
- MOLECULE: "CC12OC(C(=O)C13CCC3)C1C(=O)c3ccccc3C(=O)C12 (centres undefined)"
  LABEL: "inactive"
- MOLECULE: "c1ccc(CC(NCCNC(Cc2ccccc2)c2ccccc2)c2ccccc2)cc1 (centres undefined)"
  LABEL: "active"
- MOLECULE: "COC(=O)[C@H](Cc1ccccc1)NC(=O)c1csc([C@@H](C[C@H](C(C)C)N(C)C(=O)[C@@H](NC(=O)[C@H]2CCCN2C)C2CC2)OC(C)=O)n1"
  LABEL: "active"
- MOLECULE: "O=C(O)C1C(C(=O)O)C2(Cl)C(Cl)=C(Cl)C1(Cl)C2(Cl)Cl.[Cd] (centres undefined)"
  LABEL: "inactive"
- MOLECULE: "Fc1c[c-]c(-c2ccccn2)c(F)c1.[CH3-].[Pt+2].c1ccc(P(C[PH+](c2ccccc2)c2ccccc2)c2ccccc2)cc1"
  LABEL: "inactive"
- MOLECULE: "CCc1cccc(CC)c1/C=C/c1cncc(C(=O)NC)c1"
  LABEL: "inactive"
- MOLECULE: "O=c1[nH]c2cc(Cl)c(Cl)cc2n2cc3ccccc3c12"
  LABEL: "inactive"
- MOLECULE: "C=CC1=CC(C)C[C@]1(O)C(=O)OC (some centres undefined)"
  LABEL: "inactive"
